All values here come from paper PMC12951568.

Assay: Log P, partition between n-octanol and PBS
Type: physicochemical
Details: partition coefficient between 1-octanol and PBS

{"columns": ["substance.smiles", "Log P"],
 "data": [
  ["O=S(=O)([O-])c1ccc(Oc2cccc3c2C2=Cc4c5cccc(Oc6ccc(S(=O)(=O)[O-])c7cccnc67)c5c5[n]4[Zn][n]4c(c6cccc(Oc7ccc(S(=O)(=O)[O-])c8cccnc78)c6c4=CC3=N2)=CC2=NC(=C5)c3cccc(Oc4ccc(S(=O)(=O)[O-])c5cccnc45)c32)c2ncccc12.[Na+].[Na+].[Na+].[Na+]", "–3.64"],
  ["C[n+]1cccc(Oc2ccc3c(c2)C2=NC3=Nc3c4cc(Oc5ccc[n+](C)c5)ccc4c4[n]3[Zn][n]3c(c5ccc(Oc6ccc[n+](C)c6)cc5c3=NC3=NC(=N4)c4cc(Oc5ccc[n+](C)c5)ccc43)=N2)c1.F[P-](F)(F)(F)(F)F.F[P-](F)(F)(F)(F)F.F[P-](F)(F)(F)(F)F.F[P-](F)(F)(F)(F)F", "–2.37"],
  ["C[n+]1cccc(Oc2cc3c(cc2Oc2ccc[n+](C)c2)C2=Nc4c5cc(Oc6ccc[n+](C)c6)c(Oc6ccc[n+](C)c6)cc5c5[n]4[Zn][n]4c(c6cc(Oc7ccc[n+](C)c7)c(Oc7ccc[n+](C)c7)cc6c4=NC4=NC(=N5)c5cc(Oc6ccc[n+](C)c6)c(Oc6ccc[n+](C)c6)cc54)=NC3=N2)c1.[I-].[I-].[I-].[I-].[I-].[I-].[I-].[I-]", "–2.59"]
]}
